measured.on: AVR1675 (LFG2 3F3:3D10 IgG1 kappa) (mouse)
assay.text: ELISA
Where no end group is shown, it is not given here.

binder: TFKDDLFGGGS (not fully specified) [phage-displayed peptide T-F-K-D-D-L-F (phage clone φC7)]
unit.tag: OD
OD (phage ELISA reactivity): 1.56

binder: TFKDDIHGGGS (not fully specified) [phage-displayed peptide T-F-K-D-D-I-H (phage clone φC9)]
unit.tag: OD
OD (phage ELISA reactivity): 1.33

binder: TYRDDPPGGGS (not fully specified) [phage-displayed peptide T-Y-R-D-D-P-P (phage clone φE5)]
unit.tag: OD
OD (phage ELISA reactivity): 1.55

binder: TVRDEPLGGGS (not fully specified) [phage-displayed peptide T-V-R-D-E-P-L (phage clone φE12)]
unit.tag: OD
OD (phage ELISA reactivity): 1.7

binder: TVLDDVAGGGS (not fully specified) [phage-displayed peptide T-V-L-D-D-V-A (phage clone φC2)]
unit.tag: OD
OD (phage ELISA reactivity): 0.36

binder: TFRDEPMGGGS (not fully specified) [phage-displayed peptide T-F-R-D-E-P-M (phage clone φB9)]
unit.tag: OD
OD (phage ELISA reactivity): 1.71

binder: TFLDDAPGGGS (not fully specified) [phage-displayed peptide T-F-L-D-D-A-P (phage clone φE2)]
unit.tag: OD
OD (phage ELISA reactivity): 1.22
